Measured values drawn from the METLIN SMRT retention time set (Domingo-Almenara et al. 2019) for this set.

# assay_details: gradient 5% acetonitrile 3 min, to 50% in 2 min, to 85% in 15 min, held 3 min, 100 µL/min
# setup_conditions: column: Zorbax Extend-C18 2.1 x 50 mm; eluents: water / acetonitrile, 0.1% formic acid

[
  {
    "compound": "Cc1ccc(Nc2nc(C(=O)NCCc3cccs3)nc3ccccc23)cc1",
    "RP-LC retention time, s": 840
  },
  {
    "compound": "COc1ccc(-c2noc(CN3C(=O)COc4ccc(Cl)cc43)n2)cc1",
    "RP-LC retention time, s": 1050
  },
  {
    "compound": "CN(C)c1ccc(CNc2ccc(-c3nc(-c4cccc(F)c4)no3)cn2)cc1",
    "RP-LC retention time, s": 912
  },
  {
    "compound": "COc1ccc(S(=O)(=O)Nc2cccc(-c3cn4ccccc4n3)c2)cc1",
    "RP-LC retention time, s": 645
  },
  {
    "compound": "Cc1cc(C(=O)N[C@@H]2CN(c3ncccn3)C[C@H]2CO)c(C)o1",
    "RP-LC retention time, s": 616
  },
  {
    "compound": "Cc1cc(C)nc(Nc2nc(-c3ccccc3)c3ccccc3n2)n1",
    "RP-LC retention time, s": 709
  },
  {
    "compound": "O=C(c1ccc(Cl)s1)N1CCC(Oc2nc3c(F)cc(F)cc3s2)CC1",
    "RP-LC retention time, s": 1140
  },
  {
    "compound": "Cc1ccc2[nH]c(C(=O)NC3CC3)cc2c1",
    "RP-LC retention time, s": 782
  },
  {
    "compound": "CCc1ccc(C2=C(C)C(N3CCC(NC(=O)C(C)(C)CC)CC3)=NS2(=O)=O)cc1",
    "RP-LC retention time, s": 965
  },
  {
    "compound": "Cc1cccc(CN2CCC(CNC(=O)C3CCCN(c4cc(=O)n(C)c(=O)n4C)C3)CC2)c1 (centres undefined)",
    "RP-LC retention time, s": 599
  },
  {
    "compound": "Cn1cc(S(=O)(=O)N2CCCC2)cc1C(=O)N1CCn2c1nc1ccccc12",
    "RP-LC retention time, s": 652
  },
  {
    "compound": "CNC(=O)CCNc1c(-c2ccc(OC)cc2)nc2cnccn12",
    "RP-LC retention time, s": 588
  },
  {
    "compound": "CCN(CC)C(=O)c1ccc(-c2nc3cc(NS(=O)(=O)c4ccc(C)cc4)ccc3n2C)cc1",
    "RP-LC retention time, s": 700
  },
  {
    "compound": "CS(=O)(=O)Nc1cccc(NC(=O)c2ccc(=O)n(Cc3ccccc3)n2)c1",
    "RP-LC retention time, s": 718
  },
  {
    "compound": "CCOc1ccccc1-c1noc(Cn2c(=O)n(C(C)C)c(=O)c3ccccc32)n1",
    "RP-LC retention time, s": 1090
  },
  {
    "compound": "CC1CCN(c2ccc(-c3noc(CN4CCN(c5ccccc5)CC4)n3)cn2)CC1",
    "RP-LC retention time, s": 787
  },
  {
    "compound": "CCNc1cc(N2CCCC(CCC(=O)N3CCN(c4ncccn4)CC3)C2)ncn1 (centres undefined)",
    "RP-LC retention time, s": 624
  },
  {
    "compound": "COc1ccc(-c2nc3nccc(-c4ccsc4)n3n2)c(OC)c1",
    "RP-LC retention time, s": 832
  },
  {
    "compound": "Cc1ccc(S(=O)(=O)N2CCC(c3nc(-c4ccncc4)no3)CC2)cc1C",
    "RP-LC retention time, s": 983
  }
]
